Consider the following compounds; for each one, report its Activity.
# Tested on: Oryza sativa
# experiment-description: Relieving activity against bensulfuron-methyl induced injury to Oryza sativa (rice) assessed as growth rate at 1 uM (Rbv = 46 to 53%)
# Format: functional
Numbers only, in %.

[[record]]
smiles_record = "C[C@H](NC(=O)Nc1c(F)cccc1F)c1ccccc1"
tested_target = "Oryza sativa"
observable = "Activity"
result_value = 61

[[record]]
smiles_record = "C[C@@H](NC(=O)Nc1ccccc1F)c1ccccc1"
tested_target = "Oryza sativa"
observable = "Activity"
result_value = 64

[[record]]
smiles_record = "C[C@@H](NC(=O)Nc1cccc(Cl)c1Cl)c1ccccc1"
tested_target = "Oryza sativa"
observable = "Activity"
result_value = 80

[[record]]
smiles_record = "C[C@H](NC(=O)Nc1cccc(Br)c1)c1ccccc1"
tested_target = "Oryza sativa"
observable = "Activity"
result_value = 80

[[record]]
smiles_record = "C[C@@H](NC(=O)Nc1cccc(C(F)(F)F)c1F)c1ccccc1"
tested_target = "Oryza sativa"
observable = "Activity"
result_value = 90


Switching to the query record.
### Prompt For the compound CCCCCc1ccc(NC(=O)N[C@@H](C)c2ccccc2)cc1 , report Activity.
### Response 59

Every entry's value here was drawn from ChEMBL document CHEMBL3045406.
